Test system: mouse myoblasts (C2C12) myotubes
Assay overview: C2C12 myotube atrophy induced by C26 cell culture medium (HE staining, myotube diameter)
Assay type: cell-based
Condition parameters: 25 μM, 48 h, C26 medium-induced C2C12 myotubes
Description: Carbamo(dithioperoxo)thioate analogs alleviate mouse myoblasts (C2C12) atrophy induced by mouse colon cancer cell (C26). The diameter measurement method was used to evaluate the diameter of myotubes differentiated from mouse myoblasts (C2C12). […] The stained cells were placed under a high-magnification microscope to take photos (magnification power: 400), and the diameter of myotubes could be counted using image J software. […] Myotube diameter was measured as follows. […]
Quantity: Myotube atrophy reversal rate (%)

Compound	Study system	Measured result
CCCCCCCCSSC(=S)N1CCCC1 [Compound 1]	mouse myoblasts (C2C12) myotubes	18.39
CCCCCCCCCCCCCCSSC(=S)N1CCCC1 [Compound 6]	mouse myoblasts (C2C12) myotubes	20.41
CCCCCCCCCCCCSSC(=S)N1CCC(O)C1 (centres unmarked) [Compound 13]	mouse myoblasts (C2C12) myotubes	18.05
CCCCCCCCCCCCSSC(=S)N1CC2CCCCC2C1 (centres unmarked) [Compound 12]	mouse myoblasts (C2C12) myotubes	20.85
CCCCCCCCCCCCSSC(=S)N1CCC2(COC2)C1 [Compound 11]	mouse myoblasts (C2C12) myotubes	42.30
CCCCCCCCCCCSSC(=S)N1CCCC1 [Compound 3]	mouse myoblasts (C2C12) myotubes	35.76
CCCCCCCCCCCCSSC(=S)N1CCc2ccccc21 [Compound 10]	mouse myoblasts (C2C12) myotubes	10.82
